A collection of molecules and their measured Normalized tolerance index (TI)
# test_target: Hordeum HPPD L320Q (Hordeum vulgare, UniProt O48604, A164G/L320Q/R146V/R147D/R148G)
# Construct: His-tag (N); made in house; host or cells: E. coli BL21 (DE3)
# Sequence (O48604 whole entry R146V/R147D/R148G/A164G/L320Q): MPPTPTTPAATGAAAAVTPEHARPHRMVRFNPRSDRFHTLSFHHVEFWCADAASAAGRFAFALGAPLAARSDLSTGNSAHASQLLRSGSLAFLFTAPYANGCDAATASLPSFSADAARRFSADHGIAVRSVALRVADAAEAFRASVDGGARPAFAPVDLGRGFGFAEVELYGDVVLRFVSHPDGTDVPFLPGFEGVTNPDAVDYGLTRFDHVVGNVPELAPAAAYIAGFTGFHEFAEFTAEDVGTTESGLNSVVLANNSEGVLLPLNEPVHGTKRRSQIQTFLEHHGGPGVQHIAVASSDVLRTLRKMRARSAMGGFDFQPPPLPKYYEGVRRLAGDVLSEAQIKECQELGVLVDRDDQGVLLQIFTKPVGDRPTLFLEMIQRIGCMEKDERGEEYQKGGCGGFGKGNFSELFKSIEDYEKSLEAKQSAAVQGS
# test_name: HPPD activity assay, mutant
# Type: biochemical
# setup_conditions: Hordeum HPPD variant L320Q; normalized on wild-type
Would you mind answering with just the numeric figure?

CS(=O)(=O)c1ccc(C(=O)C2C(=O)CCCC2=O)c([N+](=O)[O-])c1; 0.3
CS(=O)(=O)c1ccc(C(=O)C2C(=O)CCCC2=O)c(Cl)c1COCC(F)(F)F; 1
Cc1c(C(=O)c2cnn(C)c2O)ccc(S(C)(=O)=O)c1C1=NOCC1; 1.2

Note to self: Normalized tolerance index (TI) recorded for COCCOCc1nc(C(F)(F)F)ccc1C(=O)C1=C(O)C2CCC(C2)C1=O (stereo not shown) was 1.1
